Recorded IC50 for the following molecules
# System name: MMP9 (Homo sapiens, UniProt P14780)
# Sequence (P14780 94-707): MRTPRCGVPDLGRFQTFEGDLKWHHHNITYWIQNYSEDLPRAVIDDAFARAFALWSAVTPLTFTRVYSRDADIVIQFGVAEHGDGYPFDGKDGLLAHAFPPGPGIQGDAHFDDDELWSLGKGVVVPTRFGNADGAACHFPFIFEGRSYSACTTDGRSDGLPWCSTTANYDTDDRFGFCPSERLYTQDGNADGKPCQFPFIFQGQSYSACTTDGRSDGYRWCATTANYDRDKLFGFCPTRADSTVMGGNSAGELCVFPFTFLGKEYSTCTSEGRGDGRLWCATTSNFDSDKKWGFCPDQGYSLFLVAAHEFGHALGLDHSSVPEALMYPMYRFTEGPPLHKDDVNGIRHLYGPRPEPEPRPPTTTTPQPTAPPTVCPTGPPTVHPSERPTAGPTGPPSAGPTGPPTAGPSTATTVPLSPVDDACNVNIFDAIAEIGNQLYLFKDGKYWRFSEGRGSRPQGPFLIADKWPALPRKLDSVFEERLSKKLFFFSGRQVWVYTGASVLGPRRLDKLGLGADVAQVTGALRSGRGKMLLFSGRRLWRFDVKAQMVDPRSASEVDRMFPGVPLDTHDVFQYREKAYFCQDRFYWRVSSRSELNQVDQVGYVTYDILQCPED
# Assay details: MMP-9 colorimetric inhibition assay (Enzo kit BML-AK410)
# Format: biochemical
# Assay conditions: thiopeptide substrate, absorbance 415 nm; read-out: MMP 9 IC50 class

Mol | IC50
COCCOC(=O)N1[C@@H]2CC[C@H]1[C@H](C(=O)NO)N(S(=O)(=O)c1ccc(Oc3nc4ccccc4o3)nc1)C2 | > 10000 nM
COCCOC(=O)N1[C@@H]2CC[C@H]1[C@H](C(=O)NO)N(S(=O)(=O)c1ccc(Oc3ccc(OC)cc3)nc1)C2 | < 50 nM
CC(=O)N1[C@@H]2CC[C@H]1[C@H](C(=O)NO)N(S(=O)(=O)c1ccc(Oc3ccc(OCC(F)(F)F)cc3)nc1)C2 | < 50 nM
COCCOC(=O)N1[C@@H]2CC[C@H]1[C@H](C(=O)NO)N(S(=O)(=O)c1ccc(Oc3cnn(-c4ccccc4)c3)nc1)C2 | < 50 nM
COCCOC(=O)N1[C@@H]2CC[C@H]1[C@H](C(=O)NO)N(S(=O)(=O)c1ccc(OC3CCC(C)(C)CC3)nc1)C2 | < 50 nM

Item: COCCOC(=O)N1[C@@H]2CC[C@H]1[C@H](C(=O)NO)N(S(=O)(=O)c1ccc(Oc3cnn(C)c3)nc1)C2 | IC50: < 50 nM
